Procedure details: Quantitative High-Throughput drug screen in 47 multiple myeloma cell lines against the NCATS MIPE library collection: RPMI8226_ATCC cell viability assay (AID 1919871); note: nearly all actives have a fitted effect of over 30% in size
Condition description: RPMI8226 myeloma viability, CellTiter-Glo ATP luminescence, 48 h; series mostly up to 45.8 µM
Results filed as inconclusive are left out. Active and inactive are the calls of the source. Calls come from the whole dose curve; as a rule, active = well fitted cell-killing curve with a large enough effect; inconclusive = small, poorly fitted or top-dose-only effect, or effect the other way; inactive = no such curve, though single readings can be large or run the other way.
# valid calls are 1 (active), -1 (inactive); nothing else

Answered examples (3):
Molecule	Assigned class
CC(=O)Nc1cccc(-n2c(=O)n(C3CC3)c(=O)c3c(Nc4ccc(I)cc4F)n(C)c(=O)c(C)c32)c1	1
CCC(=C(CC)c1ccc(O)cc1)c1ccc(O)cc1	1
CSc1cccc(Nc2ncc3cc(-c4c(Cl)cccc4Cl)c(=O)n(C)c3n2)c1	1

Hi team, can someone confirm the assay call for CCCCC[C@H](O)C=C[C@H]1[C@H](O)CC(=O)[C@H]1CCCCCCC(=O)O ? 1

Give the logged outcome of this assay for the following molecule: CN(C)CCCNC(=O)c1ccc(-c2cc(O)c3ncccc3c2)cc1 1

Which outcome did this test record for the molecule CC1C(=O)OC2C(O)C34C5CC(C(C)(C)C)C36C(OC(=O)C6O)OC4(C(=O)O5)C12O (configuration not stated) ? -1

In this assay, the call recorded for NC(=O)c1noc([C@H](CCCC2CCCCC2)CC(=O)NO)n1 was what? 1

Hello, I am checking results. What call was entered for C[C@@H]1O[C@@H](O[C@H]2CC[C@@]3(C)[C@H](CC[C@@H]4[C@H]3C[C@@H](O)[C@]3(C)[C@@H](C5=CC(=O)OC5)CC[C@]43O)C2)C[C@H](O)[C@@H]1O[C@H]1C[C@H](O)[C@H](O[C@H]2C[C@H](O)[C@@H](O)[C@@H](C)O2)[C@H](C)O1 (stereo in doubt) ? 1

// param item: COc1nc(C)cnc1NS(=O)(=O)c1cccnc1-c1ccc(-c2nnco2)cc1 ; yields the recorded call -1

What outcome does the record of this test show for O=C(O)C1=CC(O)C(O)[C@H](O)C1 (some centres not stated) ? -1

Could you please tell me the result logged for O=C1NC(=O)C(=Cc2ccc(-c3ccc(F)cc3O)o2)S1 in this assay? 1

Tell me the assay call for CO[C@H]1/C=C\O[C@@]2(C)Oc3c(C)c(O)c4c(O)c(c(C=NN5CCN(C6CCCC6)CC5)c(O)c4c3C2=O)NC(=O)C(C)=CC=C[C@H](C)[C@H](O)[C@@H](C)[C@@H](O)[C@@H](C)[C@H](OC(C)=O)[C@H]1C please. 1

Call for entry COc1nccc(-c2c(-c3ccc(F)cc3)ncn2C2CCC(O)CC2)n1 (configuration not stated) : 1

Assay result, entry N#Cc1c(N(CC(=O)O)CC(=O)O)sc(C(=O)O)c1CC(=O)O — outcome? -1

What outcome does the record of this test show for CC(C)Oc1cc(Nc2nc(N[C@@H](C)c3ccc(F)cn3)ncc2Cl)[nH]n1 ? -1

So what was the verdict on Cc1cc2c(cc1C1(c3ccc(C(=O)O)cn3)CC1)C(C)(C)CCC2(C)C in this test? 1

What did the test return for Cc1nc(C(=O)NCC(=O)O)c(O)c2ccc(Oc3ccccc3)cc12 ? -1

Field: outcome | Entry: O=C1C(CCC(O)c2ccc(F)cc2)C(c2ccc(O)cc2)N1c1ccc(F)cc1 (configuration not stated) -1

Tell me the recorded outcome of this test for CO[C@H]1/C=C\O[C@@]2(C)Oc3c(C)c(O)c4c(O)c(c5c(nc6cc(C)ccn65)c4c3C2=O)NC(=O)C(C)=CC=C[C@H](C)[C@H](O)[C@@H](C)[C@@H](O)[C@@H](C)[C@H](OC(C)=O)[C@H]1C . 1

// outcome(item) with item = C[C@]12CCC3=C4CCC(=O)C=C4CC[C@@H]3[C@H]1CC[C@@]2(O)CC#N -1

What did this assay record as the result for CCc1cccc(CC)c1NC(=O)N1Cc2[nH]nc(NC(=O)c3ccc(N4CCN(C)CC4)cc3)c2C1 ? 1

Status in this test for CCOC(=O)N1c2ccc(C(F)(F)F)cc2[C@@H](N(Cc2cc(C(F)(F)F)cc(C(F)(F)F)c2)C(=O)OC)C[C@H]1CC ? 1

Could you check what this test reported for CC[C@H]1OC(=O)[C@H](C)[C@@H](O[C@H]2C[C@@](C)(OC)[C@@H](O)[C@H](C)O2)[C@H](C)[C@@H](O[C@@H]2O[C@H](C)C[C@H](N(C)C)[C@H]2O)[C@](C)(O)C[C@H](C)C(=NOCOCCOC)[C@H](C)[C@@H](O)[C@]1(C)O ? 1

Look up the recorded call for Nc1ncnc2c1ncn2[C@@H]1O[C@H](CO)[C@@H](O)[C@@H]1O in this test. -1
